Source of measurements: patent US7135475B2

Biological target: recombinant human cytosolic PEPCK (Homo sapiens, UniProt P35558)
Sequence (P35558 whole entry): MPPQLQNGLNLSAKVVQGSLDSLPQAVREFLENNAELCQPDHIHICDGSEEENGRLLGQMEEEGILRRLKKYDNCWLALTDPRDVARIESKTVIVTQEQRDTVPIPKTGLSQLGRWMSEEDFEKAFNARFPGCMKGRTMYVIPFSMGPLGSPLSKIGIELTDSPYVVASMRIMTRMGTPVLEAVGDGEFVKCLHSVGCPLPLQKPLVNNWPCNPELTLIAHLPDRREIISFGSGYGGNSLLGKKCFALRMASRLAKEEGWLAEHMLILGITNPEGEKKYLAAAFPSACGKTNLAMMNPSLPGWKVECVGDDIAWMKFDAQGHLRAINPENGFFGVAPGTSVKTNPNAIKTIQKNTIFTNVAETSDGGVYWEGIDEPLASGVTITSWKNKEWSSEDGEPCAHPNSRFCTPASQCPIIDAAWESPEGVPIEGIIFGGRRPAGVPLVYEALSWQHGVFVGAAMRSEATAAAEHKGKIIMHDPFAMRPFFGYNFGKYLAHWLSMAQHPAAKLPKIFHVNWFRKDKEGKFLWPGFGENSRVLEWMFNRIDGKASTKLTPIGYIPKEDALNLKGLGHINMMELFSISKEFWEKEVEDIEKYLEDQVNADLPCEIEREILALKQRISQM
Assay: PEPCK enzyme assay (coupled pyruvate kinase/lactate dehydrogenase, absorbance at 340)
Settings: recombinant human cytosolic GST-PEPCK; GTP and OAA at 3 fold and 10 fold Km; final DMSO 10%; room temperature, twenty minutes; read-out: In vitro IC50
Description: E. coli cells expressing GST-PEPCK were suspended in 5 volumes of lysis buffer (50 mM Tris-hydroxymethyl aminomethyl (TRIS), 150 mM sodium chloride (NaCl), 10 mM ethylene-diametetraacetic acid (EDTA), 5 mM dithiothreitol(DTT), 1% Nonidet P-40, pH 7.4) in the presence of protease inhibitors, incubated with lysozyme at 200 micrograms/ml for 30 min. at room temperature, and sonicated 4×30 seconds at 4 degrees C. […]
pIC50: −log10 of the molar value.
READOUT: pIC50

• CC(C)N(C(=O)Cc1cccnc1)c1ccc(Cc2nc3c([nH]2)c(=O)n(Cc2ccccc2F)c(=O)n3CC2CC2)cc1 = 6.40
• Cc1cncc(C(=O)N(C)c2ccc(Cc3nc4c([nH]3)c(=O)n(Cc3ccccc3F)c(=O)n4CC3CC3)cc2)c1 = 6.40
• CN(C(=O)c1ccc(O)nc1)c1ccc(Cc2nc3c([nH]2)c(=O)n(Cc2ccccc2F)c(=O)n3CC2CC2)cc1 = 6.26
• CC(=O)Nc1csc(C)c1C(=O)N(C)c1ccc(Cc2nc3c([nH]2)c(=O)n(Cc2ccccc2F)c(=O)n3CC2CC2)cc1 = 6.13
• CN(C(=O)c1cccnc1N)c1ccc(Cc2nc3c([nH]2)c(=O)n(Cc2ccccc2F)c(=O)n3CC2CC2)cc1 = 6.55

[a] CN(C(=O)c1cncnc1)c1ccc(Cc2nc3c([nH]2)c(=O)n(Cc2ccccc2F)c(=O)n3CC2CC2)cc1
[b] CC(=O)Nc1ccc(Cc2nc3c([nH]2)c(=O)n(Cc2ccccc2F)c(=O)n3CC2CC2)cc1
[c] Cc1nn(C)c(C)c1C(=O)N(C)c1ccc(Cc2nc3c([nH]2)c(=O)n(Cc2ccccc2F)c(=O)n3CC2CC2)cc1
## Task Could you please sort these 3 entries by pIC50 from high to low? Write the labels, ordered according to the request.
## Result c, a, b
